Entries and their pKd
biological target: T1, recombinant human CD4 (catalogue number: 514-CD/CF, manufactured by R&D Systems) (human, UniProt P01730 26-390); test: SPR, Biacore T100; antibody captured on anti-human IgG chip, recombinant human CD4 flowed; 1:1 binding model
T1 construct: Bought protein (R&D Systems); also called recombinant CD4
pKd: −log10 of the molar value.

{"columns": ["binder", "pKd"],
 "data": [
  ["anti-CD4 human antibody 6G5-1 (antibody, V domains shown) VH: QVQLQQWGAGLLKPSETLSLTCAVYGGSFSGYYWSWIRQPPGKGLEWIGEINHSGSTNYNPSLKSRVTISVDTSKNQFSLKLSSVTAADTAVYYCARVINWFDPWGQGTLVTVSS VL: DIQMTQSPSSVSASVGDRVTITCRASQDISSWLAWYQHKPGKAPKLLIYAASSLQSGVPSRFSGSGSGTDFTLTISSLQPEDFATYYCQQANSFPYTFGQGTKLEIKR", 8.81],
  ["anti-CD4 humanized antibody HV4LV6 (antibody, V domains shown, Expressed from the humanized antibody expression vector pKANTEX93) VH: EVQLVESGGGLVQPGRSMRLSCAASGFTFSNYGMAWVRQAPGKGLEWVATISYDGSITYYRDSVKGRFTISRDNSKNTLYLQMNSLRAEDTATYYCTREEQYSSWYFDFWGQGILVTVSS VL: DIQLTQSPSSLSVSLGDRATITCRASQSVSISSHDLMQWYQQKPGKQPKLLIYDAFNLASGIPSRFSGSGSGTDFTLTISSVQPEDFATYYCQQSKDDPYTFGQGTKLEIK", "> 10.61"],
  ["anti-CD4 chimeric antibody KM4045 (antibody, V domains shown, Variable regions of rat KM4065 joined to a '113F type' heavy chain constant region and a human kappa constant region; In the 113F type, part of the human IgG1 Fc is substituted with human IgG3 Fc (US2007/0148165); Expressed in FUT8 knockout CHO cells (0% fucose)) VH: EVQLVESGGGLVQPGRSMKLSCAASGFTFSNYGMAWVRQAPTKGLEWVATISYDGSITYYRDSVKGRFTISRDHAKSTLYLQMNSLRSEDTATYYCTREEQYSSWYFDFWGPGIMVTVSS VL: DIVLTQSPALAVSLGQRATISCRASQSVSISSHDLMQWYQQKPGQQPKLLIYDAFNLASGIPVRFSGSGSGTDFTLTIDPVQADDIATYYCQQSKDDPYTFGAGTKLELK", "> 10.74"]
]}
